# System: lipoxygenase of circulating human leukocytes (PMNs)
# Protocol Notes: Inhibition of the lipoxygenase of circulating human leukocytes (PMNs), by radioimmunoassay of LTC4
# Assay type: cell-based
# Assay Context: Leukocyte, 8 min, calcium ionophore A23187 (0.25 μM), 8 minutes at 37° C.
Measured Endpoint: pIC50
Give bare numbers, as −log10 of the molar value.

Quick request: pIC50 for each listed item, please.
1. Oc1ccccc1Nc1nccs1 [Compound 1]
2. CC(C)(C)c1ccc(Nc2nccs2)c(O)c1 [Compound 5]
3. Cc1cc(C)c(O)c(Nc2nccs2)c1 [Compound 6]
4. Cc1ccc(Nc2nccs2)c(O)c1.Cl [Compound 3, hydrochloride]
5. Oc1ccc(Cl)cc1Nc1nccs1 [Compound 2]
6. Cc1ccc(O)c(Nc2nccs2)c1 [Compound 4]

Result:
1. 5.92
2. 5.80
3. 6.70
4. 6.48
5. 6.52
6. 6.60
